methodDescription: soluble fraction after stress (log2 fold change); higher = more stays soluble; pooled small domains, quantitative proteomics
experimentalConditions: stress: 50 degC
I'd be grateful if you could share measured soluble fraction (log2) for these entries.
Please respond with just the number, no unit label.

Ask: Tell us which soluble fraction (log2) value is on record for `HMQTTPAGHELLIRYFANGNIRERGMMKDGKRNGIWIFYDESGMEIRKTKYKMGKIISDYDLN`
Result: -1.07

Ask: Tell us which soluble fraction (log2) value is on record for `HMELNELTSRELMVAEQVARGASNREISEALSISERTVKAHLSAAFEKLGVRDRVQLALAMNNIPT`
Result: -0.0086

Ask: Tell us which soluble fraction (log2) value is on record for `HMYVQDPVDRLVLESALRLLREQEREIIFLHLVAGLKHREIAGLLHLPLSTVLSGYRRALTKMKSYLEE`
Result: -0.115

Ask: Tell us which soluble fraction (log2) value is on record for `HMGTPSAEELAFSAQKGNAVMRIMEIREKYIENGGQISDEERNEIERLIAIYYPKASIFDYLPMMG`
Result: -0.136

Ask: Tell us which soluble fraction (log2) value is on record for `HMATPIAGTKYTLNNTPVYGTEKGPSIGKRSGIYYTWDATVRNGRIRMTNSPARVGVPWQVSFWVEVNKL`
Result: -0.533

Ask: Tell us which soluble fraction (log2) value is on record for `HMSMPTITLQHYKRGSHYYASIIETFRDPVTRKNSSRTLEALGDISEKMKEDPNYLQSLKDRVKALRSD`
Result: -0.656

Ask: Tell us which soluble fraction (log2) value is on record for `HMTTLDTVARQLRDRIREQLDPTGEMSDESLLRTIEEAVYRYSSSGHVLTANEKETVIRRIFHSFR`
Result: 0.0252

Ask: Tell us which soluble fraction (log2) value is on record for `HMDFTPDQIARLDDIISRYKDKPGGLIPVLEEAQVALEYLPIGVQKRIAKGLNLPLSRVYGVVTFYSFFTM`
Result: -0.0911

---

methodDescription: soluble fraction after stress (log2 fold change); higher = more stays soluble; pooled small domains, quantitative proteomics
experimentalConditions: stress: 50 degC
Note to self: values exactly at -0.1 are Fulfilled. So soluble fraction (log2) at or above -0.1 is Fulfilled, below is Not fulfilled.

Ask: Dear colleague, could you confirm whether `HMETYHIQMKGDPSKGIVGFSQLDMVIDKIKRLETEKGIAPYELEVLDGDTMEKYSGEEFLTMHE` has soluble fraction (log2) at or above -0.1?
Result: Fulfilled

Ask: Dear colleague, could you confirm whether `HMKKLTGVQKAAILMIALGPDISSSIIKRLPENMVERITYEIANMTKITAQQRNDILKEFMDMTVAQ` has soluble fraction (log2) at or above -0.1?
Result: Not fulfilled

Ask: Dear colleague, could you confirm whether `HMEDQLDSLKDIIYDYLENNELYYNDLQEFKKIIIENMEFIHPNLNHKLIDNNFFKLINFKLEYNF` has soluble fraction (log2) at or above -0.1?
Result: Fulfilled

Ask: Dear colleague, could you confirm whether `HMKHFTYEEMELMSIYDPGTREGLIANLEEMRGYLEPDETELRELTDSALEKLRELSDADYEQLELI` has soluble fraction (log2) at or above -0.1?
Result: Not fulfilled

Ask: Dear colleague, could you confirm whether `HMSSDKVWSFEASGKQLQASYVAFENETVYLRASEDGSLLQFPLTDFGMKDQLVVLELYELSAKINRSN` has soluble fraction (log2) at or above -0.1?
Result: Not fulfilled

Ask: Dear colleague, could you confirm whether `HMQTKNYVYFNNTENWSTVNVYVWSSKDSTYMSWPGKAMESIGNNTYRFELPNGAEYAIFNNGSAQTVD` has soluble fraction (log2) at or above -0.1?
Result: Not fulfilled

Ask: Dear colleague, could you confirm whether `HMSRARSRQTSMLEAVAGLGPARRRALLKQFGGLQGVLRAGIEDLSRAPGIGPALAQAIFEHLHPGA` has soluble fraction (log2) at or above -0.1?
Result: Not fulfilled

Ask: Dear colleague, could you confirm whether `HMNVPFGFDEVNGKLVKNEEEQAIISEIKSLKNKGLSLRKIAEALNGRGIATKNGKAWTAVQIQRIA` has soluble fraction (log2) at or above -0.1?
Result: Fulfilled

Ask: Dear colleague, could you confirm whether `HMEPVFSDPARQTLYQEVMELPAKYRVPLYLYYYEGYKVDEVGELLGLNASTVQTRLARARAKLKIQL` has soluble fraction (log2) at or above -0.1?
Result: Not fulfilled

Ask: Dear colleague, could you confirm whether `HMDVNAQAGYDKLQSNQLDGARHDYEQALKTDPNNVDTLLALAAIAQRQGRSADADGYRQRAIDAD` has soluble fraction (log2) at or above -0.1?
Result: Not fulfilled

Ask: Dear colleague, could you confirm whether `HMEAIYKKNKNLIHTVIRDNFPFLIDTADYEDAFQEGSIGLIRAIDRFDDGLEYKFSSYAYTAIRNQIA` has soluble fraction (log2) at or above -0.1?
Result: Not fulfilled

Ask: Dear colleague, could you confirm whether `HMDSVEMFSPILGMNANMDLDTLTQTRDKLLEKYKDDEQLIGLVNKTYDYFNEILLKQFLIEELEKNE` has soluble fraction (log2) at or above -0.1?
Result: Not fulfilled

Ask: Dear colleague, could you confirm whether `HMSFGWESLENKEGVADTDLHPSGWVRIEDSRIFVVSEGDFINKGSKVTVLTVDGNRVVVRELI` has soluble fraction (log2) at or above -0.1?
Result: Not fulfilled

Ask: Dear colleague, could you confirm whether `HMSKPILSFVDPEKDPSHYVKRYITEETYKDWFSEHFPDYTLYEGIGITQEEYRNIVNELTKP` has soluble fraction (log2) at or above -0.1?
Result: Not fulfilled

Ask: Dear colleague, could you confirm whether `HMAVSPEEQKKRIIELFRNRNEVSFKEIFDLPTKGHFVITLLAVLDLARQQIVIMEQLENEGIIKFTKGA` has soluble fraction (log2) at or above -0.1?
Result: Fulfilled

Ask: Dear colleague, could you confirm whether `HMGKLGENIKRIREGMGLSQRQFGELIGKSDSQIWSYENDRTDILASTLYKIAAVANVDFNNLMAGIIP` has soluble fraction (log2) at or above -0.1?
Result: Not fulfilled

---

methodDescription: soluble fraction after stress (log2 fold change); higher = more stays soluble; pooled small domains, quantitative proteomics
experimentalConditions: stress: 50 degC
I'd be grateful if you could share measured soluble fraction (log2) for these entries.
Please respond with just the number, no unit label.

Ask: Tell us which soluble fraction (log2) value is on record for `HMNENDPRVIKTRRLLLDSFVVLVRKKDFTSISVKDITDSAQVNRATFYAHFQDKYDILEYMVID`
Result: 0.112

Ask: Tell us which soluble fraction (log2) value is on record for `HMDVDKQLDQLLAAMIPDKSLRQTIKTKAFNELVDNELADKDISSWTKQTMDVFMTRAEDMFGAM`
Result: -0.136

Ask: Tell us which soluble fraction (log2) value is on record for `HMNEIDLEAAKRIALQNAGVESADAAFTKAQLDYDDGVAEYEIEFVAGSTKYEYEISAANGTVLKSSKESV`
Result: -0.0497

---

methodDescription: soluble fraction after stress (log2 fold change); higher = more stays soluble; pooled small domains, quantitative proteomics
experimentalConditions: stress: 50 degC
I'd be grateful if you could share measured soluble fraction (log2) for these entries.
Please respond with just the number, no unit label.

Ask: Tell us which soluble fraction (log2) value is on record for `HMDAKNNPQVMAQIRAILTAKGLSEDEVKTRLKTKNIDVDKMTDQEIIAQRPAIEAIINEMEQEKKQKMG`
Result: 0.252

Ask: Tell us which soluble fraction (log2) value is on record for `HMGDPSSERNIQKSIFILIGEKALSVQDISRSLGMPNDIIDKALISGVERNLWLSSDKGEYYL`
Result: -1.1

Ask: Tell us which soluble fraction (log2) value is on record for `HMTSLGLEGLVNTTAIATSDLRPSGWALAGERKIFVVSEGEFIDNGDKIRILTVDGNRIVVRKETNK`
Result: -0.051

Ask: Tell us which soluble fraction (log2) value is on record for `HMSDNLSASERKALSHMEGMESVRSSEVADLLGMSQRGAQKLLNRLVDKGLASSFGANRNRRYSVE`
Result: 0.306

Ask: Tell us which soluble fraction (log2) value is on record for `HMRQIRELFRLKFGSLLPTSDRQIAAQLGVARSTVAEYLERARAAGLSWPLPLDLSDADLEERLFA`
Result: -2.75

Ask: Tell us which soluble fraction (log2) value is on record for `HMHIVQEGDSLYGIARQYRITVEELRSLNALETADVIVPYQKLYV`
Result: -0.942

Ask: Tell us which soluble fraction (log2) value is on record for `HMHSVIALTIPADYAGLRLDQALAKLLPNWSRSRLQTWIAENRVILDGQITTIKQKVWGNELIQISPQD`
Result: -1.45

Ask: Tell us which soluble fraction (log2) value is on record for `HMKTMTTIRKGSRGDTVATLQRKLNLIADGIFGPITDEAVRDFQKSHGLAVDGIVGPKTWAALGVGS`
Result: 0.0423

Ask: Tell us which soluble fraction (log2) value is on record for `HMPVSRMRARHEALARGVMGIHAGGFSAVYGYRKVWHGLIGKGWDPGEVGRDQVMNIMRGLGMQGVRR`
Result: 0.266

Ask: Tell us which soluble fraction (log2) value is on record for `HMAPSVNEVAWAQKIIDAHAEAAAAGKGLVVVDGKLIENLHVEEAKQLLSLSDAIAKNDASNG`
Result: 0.16

Ask: Tell us which soluble fraction (log2) value is on record for `HMYVTGETIRHLRTQRRMTQEQLAETLGVTGKAVSKWETGRGFPDMSLLEPLARALRISVPELLSGE`
Result: -0.614

Ask: Tell us which soluble fraction (log2) value is on record for `HMGALTGQERRAEIMNILRQSTMPLSGAALGKQLGVSRQVVVQDIALLRQSGEEIYATNRGYVTG`
Result: -0.129

Ask: Tell us which soluble fraction (log2) value is on record for `HMTDNSTTTIRNLKIEWLLEEIRNAVRTGVSVDAAVERISNNPFVKPPEDLLNEARIIFLQNAGQI`
Result: -0.166

Ask: Tell us which soluble fraction (log2) value is on record for `HMSTSLIEFTIDRNNSIANKMIMDANIPEDILVVMIKRNGDVFVPNGSTKILPGDILVLSGNKLKY`
Result: -0.534

Ask: Tell us which soluble fraction (log2) value is on record for `HMESADEESNALMYDGLLAMRGKRYEVALEFFDALVKHDPDFAEGWNKRATVLYLLGRYERSIADIKQVLA`
Result: -0.0654

Ask: Tell us which soluble fraction (log2) value is on record for `HMSVPRPSAVEVTSLVTGVRDLLPHLGEGYVERVLVEFGFKVDETINALLEGNLPKHLQDLDPSLTKEI`
Result: -0.662

Ask: Tell us which soluble fraction (log2) value is on record for `HMTLNTQLFTWKKGVRVGEDDQGNIYYRTKDDKRRWVIFTGETEATKVSPDWHGWLHRTWATPPNK`
Result: -2.39

Value source: the domain aggregation screens of Martell et al. (2025)
